Recorded values, source ChEMBL document CHEMBL3286323.

Target: Cytochrome P450 2C19 (Homo sapiens)
Sequence (P33261 whole entry): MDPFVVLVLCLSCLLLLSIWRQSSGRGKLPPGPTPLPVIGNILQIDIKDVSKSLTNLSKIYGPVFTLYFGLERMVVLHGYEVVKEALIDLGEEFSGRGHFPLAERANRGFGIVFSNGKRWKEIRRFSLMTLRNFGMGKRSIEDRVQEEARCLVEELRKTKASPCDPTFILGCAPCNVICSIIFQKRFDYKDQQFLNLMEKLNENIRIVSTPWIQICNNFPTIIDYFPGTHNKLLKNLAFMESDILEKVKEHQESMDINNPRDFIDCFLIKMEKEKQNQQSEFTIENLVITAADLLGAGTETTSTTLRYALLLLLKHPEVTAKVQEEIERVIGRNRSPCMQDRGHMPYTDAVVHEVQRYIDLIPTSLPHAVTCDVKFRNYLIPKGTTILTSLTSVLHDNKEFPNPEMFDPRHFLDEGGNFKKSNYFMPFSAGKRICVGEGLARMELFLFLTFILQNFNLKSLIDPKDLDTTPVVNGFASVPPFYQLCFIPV
pIC50: −log10 of the molar value.
Assay endpoint: pIC50

The measured pIC50 associated with Cc1cc2nn(Cc3cc([C@@H]4O[C@H](CO)[C@@H](O)[C@H](O)[C@H]4O)ccc3Cl)c(=O)n2cc1Cl reads < 4.96

---

Biological target: Sodium/glucose cotransporter 2 (Homo sapiens)
Sequence (P31639 whole entry): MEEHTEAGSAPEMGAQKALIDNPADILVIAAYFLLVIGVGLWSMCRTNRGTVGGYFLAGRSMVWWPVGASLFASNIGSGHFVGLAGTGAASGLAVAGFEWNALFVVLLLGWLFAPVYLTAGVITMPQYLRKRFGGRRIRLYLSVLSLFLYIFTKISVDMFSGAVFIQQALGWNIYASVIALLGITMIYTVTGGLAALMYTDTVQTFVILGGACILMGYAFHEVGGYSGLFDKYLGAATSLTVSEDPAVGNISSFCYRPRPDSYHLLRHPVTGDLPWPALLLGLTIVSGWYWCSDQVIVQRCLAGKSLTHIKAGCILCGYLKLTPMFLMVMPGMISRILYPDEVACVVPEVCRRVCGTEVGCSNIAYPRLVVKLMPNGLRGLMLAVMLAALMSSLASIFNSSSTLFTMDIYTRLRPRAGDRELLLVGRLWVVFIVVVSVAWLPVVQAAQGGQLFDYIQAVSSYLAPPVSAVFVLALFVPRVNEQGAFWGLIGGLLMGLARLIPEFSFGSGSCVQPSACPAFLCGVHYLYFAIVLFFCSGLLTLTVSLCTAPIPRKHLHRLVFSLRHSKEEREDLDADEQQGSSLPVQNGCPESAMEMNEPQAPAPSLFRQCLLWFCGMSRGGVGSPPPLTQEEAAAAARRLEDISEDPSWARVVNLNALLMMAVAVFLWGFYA
Assay: Inhibition of human SGLT2 expressed in CHOK1 cells assessed as inhibition of [14C]-AMG uptake after 3 hrs by microbeta scintillation counting analysis
Type: cell-based, CHO-K1
Please note: IC50 exactly at 300 nM is FALSE. Only values below 300 nM get TRUE.

Reference set (4 entries):
INSERT INTO results (structure_string, qualitative_label) VALUES
  ('Cc1ccc2nn(Cc3cc([C@@H]4O[C@H](CO)[C@@H](O)[C@H](O)[C@H]4O)ccc3Cl)c(=O)n2c1', 'TRUE'),
  ('O=c1n(Cc2cc([C@@H]3O[C@H](CO)[C@@H](O)[C@H](O)[C@H]3O)ccc2Cl)nc2ccc(C(F)(F)F)cn12', 'FALSE'),
  ('Cc1cc2nn(Cc3cc([C@@H]4O[C@H](CO)[C@@H](O)[C@H](O)[C@H]4O)ccc3Cl)c(=O)n2cc1Cl', 'TRUE'),
  ('O=c1n(Cc2cc([C@@H]3O[C@H](CO)[C@@H](O)[C@H](O)[C@H]3O)ccc2Cl)nc2c(F)cccn12', 'FALSE');

Is IC50 strictly under 300 nM for the entry O=c1n(Cc2cc([C@@H]3O[C@H](CO)[C@@H](O)[C@H](O)[C@H]3O)ccc2Cl)nc2ccc(CO)cn12 ?
TRUE

Lab note: IC50 threshold 300 nM. Does this compound come in strictly under it? O=c1n(Cc2cc([C@@H]3O[C@H](CO)[C@@H](O)[C@H](O)[C@H]3O)ccc2Cl)nc2cc(C(F)(F)F)ccn12
TRUE

Hello, is IC50 of the following compound strictly smaller than 300 nM? CN1C(=O)CN(c2ccc(Cc3cc([C@@H]4O[C@H](CO)[C@@H](O)[C@H](O)[C@H]4O)ccc3Cl)cc2)C1=O
FALSE
